Below, each entry is listed alongside its reported Log2 Expression Level.
System: skin
Assay: Affymetrix microarray of skin, DBP-4 hr and analogs vs. untreated; gene selection by log-2 fold change, Wilcoxon, Kendall tau (Tables 8, 9)
Format: in vivo, mouse
Details: gene #70 of Table 8

compound: COC(=O)c1ccccc1C(=O)OC [DMP, dimethylphthalate]
Log2 Expression Level: 3.86

Request the reported Log2 Expression Level associated with CCOC(=O)c1ccccc1C(=O)OCC [DEP, diethylphthalate]
4.38

Also, CCN(CC)C(=O)c1cccc(C)c1 [DEET, N,N-diethyl-toluamide] please.
5.72

Could you do the same for CCCCOC(=O)c1ccccc1C(=O)OCCCC [DBP, dibutylphthalate] , please?
5.48

Same question, CC(C)=O this time
4.18

====

System: skin
Assay: Affymetrix microarray of skin, DBP-4 hr and analogs vs. untreated; gene selection by log-2 fold change, Wilcoxon, Kendall tau (Tables 8, 9)
Format: in vivo, mouse
Details: gene #97 of Table 8
quantity_name: Log2 Expression Level
Give the value as a plain number.

Below are worked cases with known answers.
compound: CCCCOC(=O)c1ccccc1C(=O)OCCCC [DBP, dibutylphthalate]
quantity_name: Log2 Expression Level
observed_measurement: 6.04
//
compound: CCOC(=O)c1ccccc1C(=O)OCC [DEP, diethylphthalate]
quantity_name: Log2 Expression Level
observed_measurement: 5.27
//
compound: COC(=O)c1ccccc1C(=O)OC [DMP, dimethylphthalate]
quantity_name: Log2 Expression Level
observed_measurement: 5.27

# Log2 Expression Level lookup, item CCN(CC)C(=O)c1cccc(C)c1 [DEET, N,N-diethyl-toluamide]
5.86

Also CC(C)=O [Acetone] ?
5.16

====

Test system: skin
Test: Affymetrix microarray of skin, DBP-4 hr and analogs vs. untreated; gene selection by log-2 fold change, Wilcoxon, Kendall tau (Tables 8, 9)
Format: in vivo, mouse
Conditions: gene #13 of Table 8
quantity_name: Log2 Expression Level
// print number alone

compound: COC(=O)c1ccccc1C(=O)OC [DMP, dimethylphthalate]
quantity_name: Log2 Expression Level
observed_measurement: 5.32

Suppose we examine the compound CCOC(=O)c1ccccc1C(=O)OCC [DEP, diethylphthalate] ; what Log2 Expression Level value has been reported?
6.55

Here is the next compound: CCCCOC(=O)c1ccccc1C(=O)OCCCC [DBP, dibutylphthalate]
6.26

Here is the next compound: CC(C)=O [Acetone]
5.07

Request: CCN(CC)C(=O)c1cccc(C)c1 [DEET, N,N-diethyl-toluamide]
6.76

====

Tested on: skin
Test: Affymetrix microarray of skin, DBP-4 hr and analogs vs. untreated; gene selection by log-2 fold change, Wilcoxon, Kendall tau (Tables 8, 9)
Type: in vivo, mouse
Details: gene #23 of Table 8
quantity_name: Log2 Expression Level
// print number alone

molecule: CCOC(=O)c1ccccc1C(=O)OCC [DEP, diethylphthalate]
Log2 Expression Level: 6.03

molecule: COC(=O)c1ccccc1C(=O)OC [DMP, dimethylphthalate]
Log2 Expression Level: 5.65

Report Log2 Expression Level for CC(C)=O tested on skin.
5.76

Check CCN(CC)C(=O)c1cccc(C)c1 [DEET, N,N-diethyl-toluamide] too.
7.75

And what about the molecule CCCCOC(=O)c1ccccc1C(=O)OCCCC [DBP, dibutylphthalate] ?
6.89

====

Test system: skin
Test: Affymetrix microarray of skin, DBP-4 hr and analogs vs. untreated; gene selection by log-2 fold change, Wilcoxon, Kendall tau (Tables 8, 9)
Format: in vivo, mouse
Conditions: gene #78 of Table 8
quantity_name: Log2 Expression Level
Lab note: jot the number down without any unit.

Sample answers from the record:
molecule: CCOC(=O)c1ccccc1C(=O)OCC [DEP, diethylphthalate]
target: skin
Log2 Expression Level: 10.71
--
molecule: CCCCOC(=O)c1ccccc1C(=O)OCCCC [DBP, dibutylphthalate]
target: skin
Log2 Expression Level: 10.76

Param item = CC(C)=O ; retrieve measured Log2 Expression Level.
9.31

Another: COC(=O)c1ccccc1C(=O)OC [DMP, dimethylphthalate]
9.90

Let us now turn to CCN(CC)C(=O)c1cccc(C)c1 [DEET, N,N-diethyl-toluamide]
9.85

====

Tested on: skin
Experiment: Affymetrix microarray of skin, DBP-4 hr and analogs vs. untreated; gene selection by log-2 fold change, Wilcoxon, Kendall tau (Tables 8, 9)
Type: in vivo, mouse
Conditions: gene #89 of Table 8
quantity_name: Log2 Expression Level
Would you mind answering with just the numeric figure?

Consider the worked cases shown below.
molecule: COC(=O)c1ccccc1C(=O)OC [DMP, dimethylphthalate]
target: skin
observed_measurement: 5.43
//
molecule: CCN(CC)C(=O)c1cccc(C)c1 [DEET, N,N-diethyl-toluamide]
target: skin
observed_measurement: 6.25
//
molecule: CC(C)=O [Acetone]
target: skin
observed_measurement: 5.23
//
molecule: CCCCOC(=O)c1ccccc1C(=O)OCCCC [DBP, dibutylphthalate]
target: skin
observed_measurement: 6.04

Which Log2 Expression Level value is on record for CCOC(=O)c1ccccc1C(=O)OCC [DEP, diethylphthalate] ?
5.15

====

Measured Log2 Expression Level, listed per entry.
Tested on: skin
Experiment: Affymetrix microarray of skin, DBP-4 hr and analogs vs. untreated; gene selection by log-2 fold change, Wilcoxon, Kendall tau (Tables 8, 9)
Format: in vivo, mouse
Details: gene #26 of Table 8
The answer should be a number; do not append a unit.

Answered cases to consult:
molecule: CCN(CC)C(=O)c1cccc(C)c1 [DEET, N,N-diethyl-toluamide]
observed_measurement: 8.83
//
molecule: CCOC(=O)c1ccccc1C(=O)OCC [DEP, diethylphthalate]
observed_measurement: 7.51
//
molecule: COC(=O)c1ccccc1C(=O)OC [DMP, dimethylphthalate]
observed_measurement: 7.55
//
molecule: CCCCOC(=O)c1ccccc1C(=O)OCCCC [DBP, dibutylphthalate]
observed_measurement: 8.56

# ---- query molecule ----
Bench note: what Log2 Expression Level did CC(C)=O show?
6.97

====

System: skin
Test: Affymetrix microarray of skin, DBP-4 hr and analogs vs. untreated; gene selection by log-2 fold change, Wilcoxon, Kendall tau (Tables 8, 9)
Type: in vivo, mouse
Settings: gene #91 of Table 8
quantity_name: Log2 Expression Level
Please give the numeric answer without any surrounding text.

// known answers, use as guide
compound: COC(=O)c1ccccc1C(=O)OC [DMP, dimethylphthalate]
target: skin
quantity_name: Log2 Expression Level
observed_measurement: 6.99

compound: CCOC(=O)c1ccccc1C(=O)OCC [DEP, diethylphthalate]
target: skin
quantity_name: Log2 Expression Level
observed_measurement: 6.27

compound: CCN(CC)C(=O)c1cccc(C)c1 [DEET, N,N-diethyl-toluamide]
target: skin
quantity_name: Log2 Expression Level
observed_measurement: 9.01

compound: CCCCOC(=O)c1ccccc1C(=O)OCCCC [DBP, dibutylphthalate]
target: skin
quantity_name: Log2 Expression Level
observed_measurement: 8.25

Continue with the compound presented below.
Request the reported Log2 Expression Level associated with CC(C)=O
6.14

====

Test system: skin
Test: Affymetrix microarray of skin, DBP-4 hr and analogs vs. untreated; gene selection by log-2 fold change, Wilcoxon, Kendall tau (Tables 8, 9)
Assay type: in vivo, mouse
Settings: gene #68 of Table 8
Catalogue of compounds with associated Log2 Expression Level

Solved entries:
compound: CCCCOC(=O)c1ccccc1C(=O)OCCCC [DBP, dibutylphthalate]
observed_measurement: 10.24
//
compound: COC(=O)c1ccccc1C(=O)OC [DMP, dimethylphthalate]
observed_measurement: 7.36
//
compound: CCN(CC)C(=O)c1cccc(C)c1 [DEET, N,N-diethyl-toluamide]
observed_measurement: 10.87
//
compound: CC(C)=O
observed_measurement: 6.73

Lookup: Log2 Expression Level / skin / CCOC(=O)c1ccccc1C(=O)OCC [DEP, diethylphthalate]
8.29

====

Tested on: skin
Test: Affymetrix microarray of skin, DBP-4 hr and analogs vs. untreated; gene selection by log-2 fold change, Wilcoxon, Kendall tau (Tables 8, 9)
Type: in vivo, mouse
Conditions: gene #92 of Table 8
quantity_name: Log2 Expression Level
Answer field: number only, no words.

compound: CCCCOC(=O)c1ccccc1C(=O)OCCCC [DBP, dibutylphthalate]
Log2 Expression Level: 7.56
//
compound: CCN(CC)C(=O)c1cccc(C)c1 [DEET, N,N-diethyl-toluamide]
Log2 Expression Level: 7.14
//
compound: CC(C)=O
Log2 Expression Level: 6.80
//
compound: COC(=O)c1ccccc1C(=O)OC [DMP, dimethylphthalate]
Log2 Expression Level: 6.96

# next compound below
Entry CCOC(=O)c1ccccc1C(=O)OCC [DEP, diethylphthalate] : reported Log2 Expression Level = ?
7.41

====

Listed below: Log2 Expression Level values for each entry.
System: skin
Assay: Affymetrix microarray of skin, DBP-4 hr and analogs vs. untreated; gene selection by log-2 fold change, Wilcoxon, Kendall tau (Tables 8, 9)
Assay type: in vivo, mouse
Conditions: gene #74 of Table 8
Kindly provide the number alone.

compound: CCN(CC)C(=O)c1cccc(C)c1 [DEET, N,N-diethyl-toluamide]
Log2 Expression Level: 7.48

compound: COC(=O)c1ccccc1C(=O)OC [DMP, dimethylphthalate]
Log2 Expression Level: 7.07

compound: CC(C)=O [Acetone]
Log2 Expression Level: 7.00

compound: CCCCOC(=O)c1ccccc1C(=O)OCCCC [DBP, dibutylphthalate]
Log2 Expression Level: 7.70

The record that follows has no Log2 Expression Level shown yet.
May I ask what Log2 Expression Level has been recorded for CCOC(=O)c1ccccc1C(=O)OCC [DEP, diethylphthalate] ?
7.13

Data origin, for the record: patent US20150307938A1
